Several publications report IC50 on Leucine-rich repeat serine/threonine-protein kinase 2 (Homo sapiens); those values are gathered here.

# example entries with known answers
> print(dat)
                                   compound                                    system     test.result
1  Cc1c(F)cccc1-c1ccc2nc(NC(=O)[C@@H]3C[C@@H]3F)c(C)n2c1  Leucine-rich repeat serine/threonine-protein kinase 2 (Homo sapiens)  101 to 1000 nM
2  Cc1c2c(nn1[C@H]1CCOC[C@]1(C)F)OCCCn1nc(Cl)c3cnc(nc31)N2 (single isomer, unassigned)  Leucine-rich repeat serine/threonine-protein kinase 2 (Homo sapiens)           90 nM
3  CCCNc1cc(Nc2ccc(S(=O)(=O)N3CCC(N4CCOCC4)CC3)cc2OC)nc2[nH]cc(C(F)(F)F)c12  Leucine-rich repeat serine/threonine-protein kinase 2 (Homo sapiens)  301 to 1000 nM
4  O=C(Nc1nc2ccc(Cl)cc2s1)c1ccc(N2CCOCC2)cc1  Leucine-rich repeat serine/threonine-protein kinase 2 (Homo sapiens)          777 nM
5  COc1cc(S(=O)(=O)N2CCOCC2)ccc1Nc1cc(NC2CCC2)c2c(Cl)c[nH]c2n1  Leucine-rich repeat serine/threonine-protein kinase 2 (Homo sapiens)  301 to 1000 nM

Could you tell me IC50 for each of these compounds? They are listed below.
1. CCN(C)c1cc(Nc2ccc(C(=O)N3CCC(N4CCOCC4)CC3)c3c2OCCO3)nc2[nH]cc(C(F)(F)F)c12
2. N#Cc1c[nH]c2nccc(-c3ccc(CN4CCOCC4)cc3)c12
3. [2H]C([2H])([2H])c1c2c(nn1[C@@H]1CCCOC1)OCCCn1nc(Cl)c3cnc(nc31)N2 (single isomer, unassigned)
4. c1cc2cc(-c3cncc(N4CCOCC4)n3)cnc2[nH]1
5. Cc1nn(C(C)(C)C#N)cc1Nc1ncc(C(F)(F)F)c(NCCCNC(=O)C2CCC2)n1
6. O=C1CCCN1c1cncc(-c2cnc3[nH]ccc3c2)n1
7. Cc1n[nH]c2ncc(-c3cncc(NC4CCN(C(C)C)CC4)n3)cc12

A.
101 to 300 nM
5440 nM
25 nM
< 500 nM
1 to 100 nM
> 500 nM
> 500 nM

----------
Several publications report pIC50 on Leucine-rich repeat serine/threonine-protein kinase 2 (Homo sapiens, UniProt Q5S007); those values are gathered here.
pIC50: −log10 of the molar value.

> print(dat)
                            molecule.smiles  readout.kind   test.result
1  CNc1cc(Nc2ccc(P3(=O)CCN(C4CC4)CC3)cc2OC)nc2[nH]cc(C#N)c12         pIC50        > 7.00
2  Cc1cc(N2CCN(C)CC2)ccc1Nc1ncc(C(F)(F)F)c(NCCCNC(=O)C2CCC2)n1         pIC50  7.00 to 9.00
3  Cc1nn(C2CCN(C)CC2)cc1Nc1ncc(Cl)c(NCCCN2CCCCC2=O)n1         pIC50        < 6.22

With those in mind, consider the next compound.
Entry Cc1nn(CCN2CCCC2)cc1Nc1ncc(C(F)(F)F)c(NCCCN2CCCCC2=O)n1 — recorded pIC50 = < 6.22

----------
Several publications report IC50 on Leucine-rich repeat serine/threonine-protein kinase 2 (Homo sapiens); those values are gathered here.

# example entries with known answers
> print(dat)
                            molecule.smiles     test.result
1  Cc1nn([C@@H]2CCN(C)C2)cc1Nc1ncc(Cl)c(NCCCN2CCCOCC2=O)n1   100 to 300 nM
2  Cc1c2c(nn1C13CC(C#N)(C1)C3)OCCCn1nc(Cl)c3cnc(nc31)N2           18 nM
3  Cc1ccc(-c2ccc3nc(NC(=O)[C@@H]4C[C@@H]4F)cn3c2)c(C)c1  101 to 1000 nM

With those in mind, consider the next molecule.
Entry COC(=O)c1ccc(C)c(-c2ccc3nc(NC(=O)[C@@H]4C[C@@H]4F)cn3c2)c1 — recorded IC50 = > 1000 nM
